Source of measurements: the RNAGym collection of RNA variant scans (doi:10.7554/elife.90254)

B1: OR4K15 (parent)
chain: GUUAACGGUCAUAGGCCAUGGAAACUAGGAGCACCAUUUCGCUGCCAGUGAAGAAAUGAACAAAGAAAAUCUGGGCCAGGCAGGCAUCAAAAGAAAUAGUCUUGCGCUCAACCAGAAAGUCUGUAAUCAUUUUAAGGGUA

variants of: B1; assay: self-cleavage, relative activity (ratio to wild type); higher = more cleavage; in vitro, sequencing; the parent is a self-cleaving ribozyme
Threshold rule: self-cleavage greater than or equal to 1 is yes; below that, no.

Does the reported self-cleavage for U3C A126U fall at or above the 1 mark?
no

Does the reported self-cleavage for A47U G106A fall at or above the 1 mark?
no

Does the reported self-cleavage for A36U U97A fall at or above the 1 mark?
yes

Does the reported self-cleavage for A54G A64U fall at or above the 1 mark?
yes

Does the reported self-cleavage for U70C U131C fall at or above the 1 mark?
no

Does the reported self-cleavage for C34U A116G fall at or above the 1 mark?
no

Does the reported self-cleavage for A111U A129G fall at or above the 1 mark?
no

Does the reported self-cleavage for G58A U130C fall at or above the 1 mark?
no

Does the reported self-cleavage for A22G U70C fall at or above the 1 mark?
no

Does the reported self-cleavage for A64G A91C fall at or above the 1 mark?
yes

Does the reported self-cleavage for A22G U127C fall at or above the 1 mark?
no

Does the reported self-cleavage for A92G U133C fall at or above the 1 mark?
yes

Does the reported self-cleavage for G7U U70A fall at or above the 1 mark?
yes

Does the reported self-cleavage for A47G A68U fall at or above the 1 mark?
yes

Does the reported self-cleavage for A4G U43A fall at or above the 1 mark?
yes

Does the reported self-cleavage for G21U U37A fall at or above the 1 mark?
yes

Does the reported self-cleavage for A23U A111G fall at or above the 1 mark?
no

Does the reported self-cleavage for A27G A92U fall at or above the 1 mark?
yes

Does the reported self-cleavage for C6G U132C fall at or above the 1 mark?
no

Does the reported self-cleavage for G1A A13G fall at or above the 1 mark?
yes

Does the reported self-cleavage for G44A U131C fall at or above the 1 mark?
yes
